# testedTarget: PRMT5/MEP50 (Homo sapiens (Human), UniProt O14744)
# Sequence (O14744 other isoform, or with tags, fused parts or gaps): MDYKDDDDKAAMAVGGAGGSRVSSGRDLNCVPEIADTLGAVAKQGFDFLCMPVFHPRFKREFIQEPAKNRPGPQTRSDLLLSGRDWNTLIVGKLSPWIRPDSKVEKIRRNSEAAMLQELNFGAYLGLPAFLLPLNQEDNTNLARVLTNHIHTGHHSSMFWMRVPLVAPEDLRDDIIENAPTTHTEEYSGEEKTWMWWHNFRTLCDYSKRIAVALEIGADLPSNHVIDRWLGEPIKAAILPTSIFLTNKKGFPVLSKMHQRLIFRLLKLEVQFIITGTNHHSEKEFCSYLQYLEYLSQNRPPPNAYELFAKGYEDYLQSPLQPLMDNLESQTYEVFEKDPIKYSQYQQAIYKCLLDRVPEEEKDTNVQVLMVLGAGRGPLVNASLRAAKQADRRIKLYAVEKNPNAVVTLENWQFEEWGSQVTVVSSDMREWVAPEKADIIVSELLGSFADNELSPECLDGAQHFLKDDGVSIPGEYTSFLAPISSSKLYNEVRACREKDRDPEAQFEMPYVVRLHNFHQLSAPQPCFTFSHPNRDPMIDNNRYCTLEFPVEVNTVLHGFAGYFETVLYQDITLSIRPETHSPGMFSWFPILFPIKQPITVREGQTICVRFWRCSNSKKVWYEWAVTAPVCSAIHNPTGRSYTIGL
# Sequence (Q9BQA1 other isoform, or with tags, fused parts or gaps partner): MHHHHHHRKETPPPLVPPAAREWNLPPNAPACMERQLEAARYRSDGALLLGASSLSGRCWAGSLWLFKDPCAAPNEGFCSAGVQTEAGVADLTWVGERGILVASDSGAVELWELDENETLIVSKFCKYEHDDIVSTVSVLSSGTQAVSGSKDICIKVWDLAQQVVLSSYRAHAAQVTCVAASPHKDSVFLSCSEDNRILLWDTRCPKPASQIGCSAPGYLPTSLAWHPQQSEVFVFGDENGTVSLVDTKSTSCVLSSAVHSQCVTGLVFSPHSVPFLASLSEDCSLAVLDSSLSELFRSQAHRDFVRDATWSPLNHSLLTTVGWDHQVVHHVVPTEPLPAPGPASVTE
# protocolDescription: PRMT5 Biochemical Assay (PRMT5/MEP50 enzyme assay on peptide substrate, 3H-SAM Flashplate)
# conditionDescription: PRMT5/MEP50 4 nM, 3H-SAM 75 nM, peptide 40 nM
measuredQuantity: IC50

INSERT INTO measurements (compound, measuredquantity, result) VALUES
  ('NS(=O)(=O)c1cccc(OCC(=O)NCC(O)CN2CCc3ccccc3C2)c1 (stereo not drawn) [Compound 131]', 'IC50', '1000 to 10000 nM'),
  ('O=C(COc1ccccc1N1CCOCC1)NC[C@@H](O)CN1CCc2ccccc2C1 [Compound 78]', 'IC50', '101 to 1000 nM'),
  ('O=C(COCc1cccnc1)NCC(O)CN1CCc2ccccc2C1 (stereo not drawn) [Compound 152]', 'IC50', '1000 to 10000 nM');

Q. Query (compound): CC(=O)N1CCN(S(=O)(=O)c2ccccc2OCC(=O)NCC(O)CN2CCc3ccccc3C2)CC1 (stereo not drawn) [Compound 122] ; field requested: IC50
A. 101 to 1000 nM

Q. Can you share its IC50? I mean this compound: O=C(CNc1ccccc1)NCC(O)CN1CCc2ccccc2C1 (stereo not drawn) [Compound 18]
A. 1000 to 10000 nM

Q. Dear colleague, I am looking for the recorded IC50 of the following compound: O=C(COc1cccc2c1OCC(=O)N2)NCC(O)CN1CCc2ccccc2C1 (stereo not drawn) [Compound 124]
A. 1000 to 10000 nM

Q. Which IC50 value is on record for O=C(COc1ccccc1OCCN1CCOCC1)NC[C@@H](O)CN1CCc2ccccc2C1 [Compound 87] ?
A. 1000 to 10000 nM

Q. Value lookup for IC50; key = N#Cc1ccccc1OCC(=O)NCC(O)CN1CCc2ccccc2C1 (stereo not drawn) [Compound 17]
A. 101 to 1000 nM

Q. State the recorded IC50 for this entry: CN(C)C(=O)c1ccccc1OCC(=O)NCC(O)CN1CCc2ccccc2C1 (stereo not drawn) [Compound 113]
A. 101 to 1000 nM

###

# testedTarget: PRMT5/MEP50 (Homo sapiens (Human))
# protocolDescription: PRMT5 Biochemical Assay (PRMT5/MEP50 enzyme assay on peptide substrate, 3H-SAM Flashplate)
# conditionDescription: PRMT5/MEP50 4 nM, 3H-SAM 75 nM, peptide 40 nM
pIC50: −log10 of the molar value.
Recorded pIC50 for the following compounds

Example entries and their recorded answers appear below.
INSERT INTO measurements (compound, result) VALUES
  ('CN(CC(O)CN1CCc2ccccc2C1)C(=O)COc1ccccc1 (stereo not shown)', '4.30 to 5.00'),
  ('O=C(COc1ccccc1)NC[C@@H](O)CN1CCc2ccccc2C1', '5.00 to 6.00'),
  ('O=C(Cc1ccncc1)NCC(O)CN1CCc2ccccc2C1 (stereo not shown)', '4.30 to 5.00'),
  ('NC(=O)c1ccccc1OCC(=O)NCC(O)CN1CCc2ccccc2C1 (stereo not shown)', '6.00 to 7.00');

Q. Consider the compound O=C(COc1ccccc1C1CNC1)NCC(O)CN1CCc2ccccc2C1 (stereo not shown) and give its measured pIC50.
A. 5.00 to 6.00

Q. Can you look up the measured pIC50 of O=C(COc1ccccc1)NC[C@H](O)CN1CCc2ccccc2C1 for me?
A. 6.00 to 7.00

Q. Quick one: pIC50 for CC(=O)Nc1ccc(OCC(=O)NCC(O)CN2CCc3ccccc3C2)cc1 (stereo not shown) ?
A. 6.00 to 7.00

Q. Would you mind telling me what pIC50 value was observed for CC(C)(C)OC(=O)Nc1ccccc1OCC(=O)NCC(O)CN1CCc2ccccc2C1 (stereo not shown) ?
A. 5.00 to 6.00

Q. Look at this compound and give its reported pIC50. O=C(COc1cccc(F)c1)NCC(O)CN1CCc2ccccc2C1 (stereo not shown)
A. 6.00 to 7.00

Q. # pIC50 lookup, item Cn1cnc2ccc(NCC(=O)NCC(O)CN3CCc4ccccc4C3)cc21 (stereo not shown)
A. 6.00 to 7.00

Q. Entry CN(C)c1cncc(OCC(=O)NCC(O)CN2CCc3ccccc3C2)c1 (stereo not shown) has what pIC50?
A. 5.00 to 6.00

Q. Sample O=C(COc1ccccc1-c1c[nH]cn1)NCC(O)CN1CCc2ccccc2C1 (stereo not shown) — what was its pIC50?
A. 4.30 to 5.00

Q. Looking for the measured pIC50 of O=C(CCc1ccccc1)NCC(O)CN1CCc2ccccc2C1 (stereo not shown) , can you help?
A. 5.00 to 6.00

Q. Which value of pIC50 has been reported for Cc1ccc(OCC(=O)NCC(O)CN2CCc3ccccc3C2)cc1 (stereo not shown) in the records?
A. 6.00 to 7.00

Origin of measurements: patent US9765068B2
